- Species: Cavia porcellus
- PROTOCOL_DESCRIPTION: Percent relaxation of isolated guinea pig trachea.
- Assay type: functional
Assign class by pD2: not lower than 5 means TRUE; lower than 5 means FALSE.

Please review the following examples before continuing.
O=C1c2ccccc2S(=O)(=O)c2cc(-c3nn[nH]n3)ccc21	TRUE
Cc1occc(=O)c1O	TRUE
O=C(CN1CCNCC1)N1CCCC1	FALSE
O=C(O)c1ccc2c(c1)S(=O)(=O)c1ccccc1C2=O	FALSE

**Q:** Determine whether this compound has pD2 no lower than 5: `Cn1c(=O)c2nc[nH]c2n(C)c1=O.O`
**A:** FALSE

**Q:** Try the compound `N#Cc1ccc2c(c1)S(=O)(=O)c1ccccc1C2=O`
**A:** FALSE

**Q:** Try the compound `O=S1(=O)OC(c2cc(Br)c(O)c(Br)c2)(c2cc(Br)c(O)c(Br)c2)c2ccccc21`
**A:** FALSE

**Q:** Try the compound Cc1nc2c(o1)CC1C=CC=CC1=CC2O (stereo not drawn)
**A:** FALSE

**Q:** Try the compound `COC1=CC(=O)C[C@@H](C)[C@]12Oc1c(Cl)c(OC)cc(OC)c1C2=O`
**A:** FALSE

**Q:** Try the compound `Nc1nccs1`
**A:** FALSE

---

The entries below come with measured pD2 values attached.
- Species: Cavia porcellus
- PROTOCOL_DESCRIPTION: Percent relaxation of isolated guinea pig trachea.
- Assay type: functional
Give your answer as a number; write no unit.

Below, 2 molecules whose answers are already recorded.
Cc1c(C(C)C)c(=O)n(-c2ccccc2)n1C [PROPYPHENAZONE]	5.69
C[C@]12CCC(=O)C=C1CCCC2=O	4.5

**Q:** May I ask what pD2 has been recorded for `NC(=O)c1ccc2c(c1)S(=O)(=O)c1ccccc1C2=O` ?
**A:** 5.69

**Q:** Try the molecule CC(=O)CC(c1ccc([N+](=O)[O-])cc1)c1c(O)c2ccccc2oc1=O (stereo not drawn) [ACENOCOUMAROL]
**A:** 4.55

**Q:** Try the molecule COC(=O)C1C2CCC(O2)C1C(=O)OC (stereo not drawn)
**A:** 4.8

**Q:** Try the molecule Cc1c(C2(c3cc(Br)c(O)c(Br)c3C)OS(=O)(=O)c3ccccc32)cc(Br)c(O)c1Br [BROMCRESOL GREEN]
**A:** 4.5

**Q:** Try the molecule Oc1ccc2c(O)c3ccccc3cc2c1O [ANTHRAROBIN]
**A:** 5.69

**Q:** Try the molecule CCn1cc(C(=O)O)c(=O)c2cnc(N3CCCC3)nc21 [PIROMIDIC ACID]
**A:** 5.3
